- MEASURED_TARGET: WT human STING isoform (Homo sapiens, UniProt Q86WV6, H232R)
- Sequence (Q86WV6 whole entry H232R, canonical isoform): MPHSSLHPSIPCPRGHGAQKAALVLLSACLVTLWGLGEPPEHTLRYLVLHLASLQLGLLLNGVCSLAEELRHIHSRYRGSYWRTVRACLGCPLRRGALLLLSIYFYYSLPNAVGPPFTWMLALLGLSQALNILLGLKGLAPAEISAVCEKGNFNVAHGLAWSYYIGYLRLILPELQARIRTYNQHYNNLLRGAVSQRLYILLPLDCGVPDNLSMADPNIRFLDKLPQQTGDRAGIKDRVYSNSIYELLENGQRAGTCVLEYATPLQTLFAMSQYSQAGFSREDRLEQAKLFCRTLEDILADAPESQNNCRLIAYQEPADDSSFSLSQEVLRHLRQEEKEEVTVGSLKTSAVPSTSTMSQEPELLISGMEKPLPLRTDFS
- PROTOCOL_SUMMARY: THP-1-Dual KI-hSTING-R232 reporter cell line assay
- PARTICULARS: 24 h incubation, QUANTI-Luc luminescence; normalised to 40 μM ML RR-S2 CDA; read-out: EC50 THP-1 Dual KI-hSTING-R232 cells
EXPERIMENTAL_ENDPOINT: EC50 (nM)

>  <COMPOUND>
COc1c(C(N)=O)ccc2nc(-c3c(C(=O)O)sc4c(F)ccc(Br)c34)[nH]c12

>  <EXPERIMENTAL_ENDPOINT>
EC50

>  <U>
nM

>  <CENSORING_OPERATOR>
=

>  <RESULT>
1040

$$$$
>  <COMPOUND>
CCOC(=O)c1sc2cccc(Cl)c2c1-c1nc2ccc(C(N)=O)cc2n1C (single isomer, unassigned)

>  <EXPERIMENTAL_ENDPOINT>
EC50

>  <U>
nM

>  <CENSORING_OPERATOR>
=

>  <RESULT>
29400

$$$$
>  <COMPOUND>
CCOC(=O)c1sc2c(F)ccc(Br)c2c1-c1nc2ccc(C(N)=O)c(OC)c2[nH]1

>  <EXPERIMENTAL_ENDPOINT>
EC50

>  <U>
nM

>  <CENSORING_OPERATOR>
=

>  <RESULT>
121

$$$$
>  <COMPOUND>
NC(=O)c1ccc2[nH]c(-c3c(C(=O)O)sc4cccc(Cl)c34)nc2c1

>  <EXPERIMENTAL_ENDPOINT>
EC50

>  <U>
nM

>  <CENSORING_OPERATOR>
>

>  <RESULT>
40000

$$$$
>  <COMPOUND>
CCOC(=O)c1sc2c(F)ccc(Cl)c2c1-c1nc2c(OC)c(C(N)=O)cc(Cl)c2[nH]1

>  <EXPERIMENTAL_ENDPOINT>
EC50

>  <U>
nM

>  <CENSORING_OPERATOR>
=

>  <RESULT>
2270

$$$$
>  <COMPOUND>
CCOC(=O)c1sc2c(F)ccc(Cl)c2c1-c1nc2c(OC)c(C(N)=O)cc(F)c2[nH]1

>  <EXPERIMENTAL_ENDPOINT>
EC50

>  <U>
nM

>  <CENSORING_OPERATOR>
=

>  <RESULT>
119

$$$$
>  <COMPOUND>
CCOC(=O)c1sc2cccc(Cl)c2c1-c1nc2cc(C(N)=O)cc(F)c2[nH]1

>  <EXPERIMENTAL_ENDPOINT>
EC50

>  <U>
nM

>  <CENSORING_OPERATOR>
=

>  <RESULT>
2580

$$$$
>  <COMPOUND>
CCOC(=O)c1sc2cccc(OC)c2c1-c1nc2c(OC)c(C(N)=O)ccc2[nH]1

>  <EXPERIMENTAL_ENDPOINT>
EC50

>  <U>
nM

>  <CENSORING_OPERATOR>
=

>  <RESULT>
82

$$$$
